Items are presented alongside their recorded TGI.
# Tested on: 786-0 renal
# Measurement Description: NCI tumour cell line growth inhibition, 48 h
Readout Kind: TGI

[
  {
    "Compound": "Cc1ccc(S(=O)(=O)NC(=O)NC(CCC(N)=O)C(=O)O)cc1 (stereo not given)",
    "Result": "> 100 µM"
  },
  {
    "Compound": "Nc1ccc(-c2ccc3ncc4ccc(=O)n(-c5cccc(C(F)(F)F)c5)c4c3c2)cn1",
    "Result": "0.423 µM"
  },
  {
    "Compound": "CN(C)CCCCCNc1c2ccccc2nc2cccc([N+](=O)[O-])c12",
    "Result": "0.00798 µM"
  },
  {
    "Compound": "Cc1cn2c(/C=N/N=C(N)N)c(-c3ccncc3)nc2s1",
    "Result": "29.3 µM"
  },
  {
    "Compound": "COC(=O)N/N=C(\\C)C(CN(C)C)C(c1ccccc1)c1c(O)c2ccccc2oc1=O (stereo not given)",
    "Result": "> 100 µM"
  },
  {
    "Compound": "CC(=O)O[C@H]1C(=O)[C@@]2(C)[C@H]([C@H](OC(=O)c3ccccc3)[C@]3(O)C[C@H](OC(=O)[C@H](O)[C@@H](NC(=O)c4ccc(N(C)C)cc4)c4ccccc4)C(C)=C1C3(C)C)[C@]1(OC(C)=O)CO[C@@H]1C[C@@H]2O",
    "Result": "> 50 µM"
  },
  {
    "Compound": "COc1cccc2cc(C(=O)NC34CC5CC(CC(C5)C3)C4)c(=N)oc12",
    "Result": "> 100 µM"
  },
  {
    "Compound": "C/C(=N\\NC(N)=S)c1sc(-n2nc(-c3ccccc3)cc2-c2ccccc2)nc1C",
    "Result": "> 100 µM"
  },
  {
    "Compound": "COC(=O)CC(=O)NCC1=CCC(=O)CC1",
    "Result": "> 100 µM"
  },
  {
    "Compound": "CN(C)c1ccc(/C=C(\\NC(=O)c2ccccc2)C(=O)NC(Cc2c[nH]c3ccccc23)C(=O)O)cc1 (stereo not given)",
    "Result": "> 100 µM"
  },
  {
    "Compound": "NCCNC(=O)CN(CC(=O)O)C1CCCCC1N(CC(=O)O)CC(=O)O (stereo not given)",
    "Result": "> 100 µM"
  },
  {
    "Compound": "C=CC[C@]1(C2=NC(C)(C)CO2)c2ccccc2-c2ccccc2[C@H]1C(C)=O",
    "Result": "24.9 µM"
  },
  {
    "Compound": "COc1ccc2c3c1OC1C(OC)(OC)CC4(C=C2)CN(C)CCC314 (stereo not given)",
    "Result": "> 100 µM"
  },
  {
    "Compound": "Cc1nc(Nc2ccc(Cl)c(Cl)c2)sc1C(=O)/C=C/c1ccc2c(c1)OCO2",
    "Result": "38.4 µM"
  },
  {
    "Compound": "COc1ccc(C2C3=C(COC3=O)OC(C)(C)Oc3cc4c(cc32)OCO4)cc1OC (stereo not given)",
    "Result": "> 100 µM"
  },
  {
    "Compound": "C=CCn1c(-c2ccc(Cl)cc2)csc1=Nc1ccccc1OC",
    "Result": "> 100 µM"
  },
  {
    "Compound": "O=C(c1ccco1)N(C(=S)N1CCN(c2ccccn2)CC1)c1ccccc1",
    "Result": "> 100 µM"
  },
  {
    "Compound": "C/C(O)=C(\\N=O)C(=O)NCc1ccccc1",
    "Result": "> 100 µM"
  },
  {
    "Compound": "COc1ccc(CCN2C(=O)CC34C=CC(CC3C2=O)O4)cc1OC (stereo not given)",
    "Result": "> 100 µM"
  },
  {
    "Compound": "Cn1cncc1-c1c(F)cncc1NC(=O)c1c(N)nn2cc(F)cnc12",
    "Result": "> 100 µM"
  }
]
